Where these numbers come from: patent US7468457B2

Target: RAR ALPHA (Homo sapiens, UniProt P10276)
Sequence (P10276 183-417 limits assumed): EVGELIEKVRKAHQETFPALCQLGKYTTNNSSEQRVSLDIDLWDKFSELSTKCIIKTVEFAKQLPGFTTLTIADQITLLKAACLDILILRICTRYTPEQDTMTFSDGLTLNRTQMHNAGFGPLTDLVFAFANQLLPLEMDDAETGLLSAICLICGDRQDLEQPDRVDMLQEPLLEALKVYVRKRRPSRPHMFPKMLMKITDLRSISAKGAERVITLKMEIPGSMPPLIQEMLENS
Experiment: Transactivation test (luciferase reporter, HeLa stable transfectants), RAR alpha
Conditions: HeLa cells; inhibition at the reference agonist concentration that gives 80% activation
readoutKind: IC50 (nM)
Numbers only; they are read as nM.

The cases that follow already have their IC50 on record.
molecule	IC50 (nM)
CC(C)(C)c1ccc(-c2cc(C(=O)/C=C/c3ccc(C(=O)O)cc3)cc3c2C(C)(C)CCC3(C)C)cc1 [Ex. 8]	3.5
Cc1ccc(-c2cc(C(O)/C=C/c3ccc(C(=O)O)cc3)cc3c2C(C)(C)CCC3(C)C)cc1 (stereo not shown) [Ex. 9]	437
Cc1ccc(-c2cc(C(O)C#Cc3ccc(C(=O)O)cc3)cc3c2C(C)(C)CCC3(C)C)cc1 (stereo not shown) [Ex. 5]	7000

IN: Write down the reported IC50 of Cc1ccc(-c2cc(C(=O)/C=C/c3ccc(C(=O)O)cc3)cc3c2C(C)(C)CCC3(C)C)cc1 [Ex. 7] , test system: RAR ALPHA (Homo sapiens, UniProt P10276).
OUT: 1.75

----------
Target: RAR ALPHA (Homo sapiens)
Experiment: Transactivation test (luciferase reporter, HeLa stable transfectants), RAR alpha
Type: cell-based
Conditions: HeLa cells; apparent Kd from Schild regression of crossed curves against reference agonist; read-out: RAR ALPHA Kd app
readoutKind: pKd
Please note pKd is a logarithmic value: minus log10 of concentration in mol/L. Answer with that number alone.

The cases that follow already have their pKd on record.
compound	targetOfAssay	pKd
Cc1ccc(-c2cc(C(=O)/C=C/c3ccc(C(=O)O)cc3)cc3c2C(C)(C)CCC3(C)C)cc1 [Ex. 7]	RAR ALPHA (Homo sapiens)	9.00
Cc1ccc(-c2cc(C(O)/C=C/c3ccc(C(=O)O)cc3)cc3c2C(C)(C)CCC3(C)C)cc1 (stereo not shown) [Ex. 9]	RAR ALPHA (Homo sapiens)	6.60
Cc1ccc(-c2cc(C(O)C#Cc3ccc(C(=O)O)cc3)cc3c2C(C)(C)CCC3(C)C)cc1 (stereo not shown) [Ex. 5]	RAR ALPHA (Homo sapiens)	5.40

IN: Any idea what pKd was measured for CC(C)(C)c1ccc(-c2cc(C(=O)/C=C/c3ccc(C(=O)O)cc3)cc3c2C(C)(C)CCC3(C)C)cc1 [Ex. 8] ?
OUT: 8.70
